# Tested on: G401
# PROTOCOL_TEXT: relative viability vs DMSO control (72 h) (fraction); higher = more viable cells
# RUN_PARAMETERS: 10 µM
Structures can show the parent of a compound that is named as a salt.
Hi! Could you tag entries with relative viability below 0.8 as Satisfied, and those at or above as Not satisfied? Much appreciated.

- COMPOUND: "Cn1cc(-c2cc3c(N4CCN(c5ncc([C@@](C)(N)c6ccc(F)cc6)cn5)CC4)ncnn3c2)cn1"
  CLASS_LABEL: "Satisfied"
- COMPOUND: "C[C@@H](c1ccc2nccn2c1)n1nnc2ncc(-c3cnn(C)c3)nc21"
  CLASS_LABEL: "Not satisfied"
- COMPOUND: "Cc1cnc(Nc2ccc(OCCN3CCCC3)cc2)nc1Nc1cccc(S(=O)(=O)NC(C)(C)C)c1"
  CLASS_LABEL: "Satisfied"
- COMPOUND: "COc1cccc2c1C(=O)c1c(O)c3c(c(O)c1C2=O)C[C@@](O)(C(=O)CO)C[C@@H]3O[C@H]1C[C@H](N)[C@H](O)[C@H](C)O1 [Doxorubicin Hydrochloride]"
  CLASS_LABEL: "Satisfied"
- COMPOUND: "Cc1cc(Nc2ncnc3ccc(NC4=NC(C)(C)CO4)cc23)ccc1Oc1ccn2ncnc2c1"
  CLASS_LABEL: "Not satisfied"
- COMPOUND: "COc1cc2/c(=N/c3ccc(Br)cc3F)nc[nH]c2cc1OCC1CCN(C)CC1"
  CLASS_LABEL: "Satisfied"
- COMPOUND: "CCCS(=O)(=O)Nc1ccc(F)c(C(=O)c2c[nH]c3ncc(-c4ccc(Cl)cc4)cc23)c1F"
  CLASS_LABEL: "Satisfied"
